# System: MOLT-4 cancer cell line
# TEST_DETAILS: Cell proliferation assay, MOLT-4 cancer cell line (ATPlite);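 note: luminescence read-out, percent growth versus compound-free DMSO wells as maximum growth, start-of-incubation signal separating growth from cell death, IC50 from logistic curve fit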
# Assay type: cell-based
# CONDITION_INFO: Homo sapiens, MOLT-4; 72 hours incubation, ATPlite 1Step; read-out: IC50 MOLT-4 cell proliferation
MEASURE_NAME: IC50

>>> observed_value("COc1cc(N2CCN(C)CC2)ccc1Nc1ncc2c(n1)-n1ccc(C(=O)Nc3c(C)ccnc3Cl)c1CC2")
"0.05 to 0.15 µM"

query: Name the recorded IC50 for CCc1cccc(CC)c1NC(=O)c1ccn2c1CCc1cnc(Nc3ccc(N4CCNCC4)cc3OC)nc1-2 .
result: < 0.05 µM

query: Which measured IC50 value corresponds to Cc1cc(N2CCOCC2)ncc1Nc1ncc2c(n1)-n1ccc(C(=O)Nc3c(C)cccc3C)c1CC2 ?
result: 0.05 to 0.15 µM
